# measurementTarget: ΔF508-CFTR (Homo sapiens, UniProt P13569, DEL508-508)
# Construct: host or cells: CFBE41o-, doxycycline-inducible
# Sequence (P13569 with tags, fused parts or gaps DEL508-508): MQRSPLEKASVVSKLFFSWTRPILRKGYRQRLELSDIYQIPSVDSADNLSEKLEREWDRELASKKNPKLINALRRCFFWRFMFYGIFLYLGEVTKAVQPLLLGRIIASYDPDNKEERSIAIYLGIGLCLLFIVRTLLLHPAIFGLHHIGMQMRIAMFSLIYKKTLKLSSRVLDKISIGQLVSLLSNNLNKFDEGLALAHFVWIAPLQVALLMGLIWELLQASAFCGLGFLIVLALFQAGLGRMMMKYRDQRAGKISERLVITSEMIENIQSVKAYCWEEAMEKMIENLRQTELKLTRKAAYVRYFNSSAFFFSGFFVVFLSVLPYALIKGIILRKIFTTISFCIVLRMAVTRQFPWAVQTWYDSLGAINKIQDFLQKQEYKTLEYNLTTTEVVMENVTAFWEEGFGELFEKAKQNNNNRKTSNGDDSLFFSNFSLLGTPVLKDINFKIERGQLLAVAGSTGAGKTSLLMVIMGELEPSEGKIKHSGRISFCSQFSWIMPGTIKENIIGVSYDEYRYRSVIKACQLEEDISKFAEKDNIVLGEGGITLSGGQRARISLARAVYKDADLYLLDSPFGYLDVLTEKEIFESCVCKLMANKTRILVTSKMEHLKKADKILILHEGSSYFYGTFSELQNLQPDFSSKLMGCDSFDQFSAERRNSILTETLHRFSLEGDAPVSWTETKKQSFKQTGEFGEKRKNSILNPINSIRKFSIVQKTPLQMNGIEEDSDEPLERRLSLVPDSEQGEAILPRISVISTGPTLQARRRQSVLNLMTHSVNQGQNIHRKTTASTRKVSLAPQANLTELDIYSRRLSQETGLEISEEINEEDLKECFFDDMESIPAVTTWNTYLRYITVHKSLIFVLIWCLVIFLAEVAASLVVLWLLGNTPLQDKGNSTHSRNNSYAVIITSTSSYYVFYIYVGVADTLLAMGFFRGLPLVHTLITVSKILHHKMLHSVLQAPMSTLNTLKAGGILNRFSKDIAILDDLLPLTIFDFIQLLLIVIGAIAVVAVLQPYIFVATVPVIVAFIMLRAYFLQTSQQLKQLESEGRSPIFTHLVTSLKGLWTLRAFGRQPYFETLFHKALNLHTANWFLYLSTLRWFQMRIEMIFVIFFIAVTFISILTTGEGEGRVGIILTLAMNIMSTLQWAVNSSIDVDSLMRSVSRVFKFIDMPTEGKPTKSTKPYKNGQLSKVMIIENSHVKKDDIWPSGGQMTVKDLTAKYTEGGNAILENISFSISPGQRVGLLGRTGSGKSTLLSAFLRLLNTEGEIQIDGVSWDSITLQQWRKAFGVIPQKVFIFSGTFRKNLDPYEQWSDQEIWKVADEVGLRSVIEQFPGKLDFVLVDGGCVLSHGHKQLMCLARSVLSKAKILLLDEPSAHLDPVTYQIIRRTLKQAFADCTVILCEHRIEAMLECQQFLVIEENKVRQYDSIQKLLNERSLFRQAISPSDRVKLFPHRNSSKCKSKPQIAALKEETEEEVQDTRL
# experimentDescription: CFTR cell surface levels using HRP-tagged ΔF508-CFTR expressing CFBE cells, intrinsic corrector capacity
# Format: cell-based
# Set-up: concentration or dose not given beside the values
# appliedConditions: HRP-tagged ΔF508-CFTR expressing CFBE41o- cells; compound alone (intrinsic corrector capacity); 20 hours at 33° C.
# Text: Measuring CFTR Cell Surface Levels Using HRP-Tagged ΔF508-CFTR Expressing CFBE Cells The HRP-tagged ΔF508-CFTR cell assay measures the expression of CFTR-ΔF508 at the plasma membrane. […] When HRP-tagged ΔF508-CFTR is present at the plasma membrane, the HRP enzyme activity can be measured. The amount of CFTR-ΔF508 that can be rescued to the plasma membrane is correlated with the amount of functional enzyme that can be measured. […]
Answer f if % Activation is under 300%, and t if it is 300% or more.

Request: Evaluate COCC1CCN(c2cc(C(=O)NS(=O)(=O)c3cn[nH]c3)nc3c2c(C2CCC2)nn3-c2ccccc2)CC1 : % Activation at minimum 300%?
Response: f

Request: I'd appreciate it if you could say whether CN(C)S(=O)(=O)NC(=O)c1cc(N2CCC(N3CCC(C#N)C3)CC2)c2c(C3CCC3)nn(-c3ccc(F)cc3)c2n1 (stereo not shown) has % Activation at least equal to 300%.
Response: t

Request: Given the entry COCCC1CCN(c2cc(C(=O)NS(C)(=O)=O)nc3c2c(C(C)C)nn3-c2cccc(C)c2)CC1 , answer whether its % Activation meets or surpasses 300%.
Response: t

Request: Hi, just wondering whether COC[C@@H]1CCCN1C1CCN(S(=O)(=O)NC(=O)c2cc(N3CCC(N4CCOCC4)CC3)c3c(C4CCC4)nn(-c4ccccc4)c3n2)CC1 shows % Activation of 300% or higher.
Response: f

Request: Dear colleague, could you confirm whether CCOC(=O)N1CCC(c2cc(C(=O)NS(=O)(=O)N(C)C)nc3c2c(C(C)C)nn3-c2ccc(F)cc2)CC1 has % Activation at or above 300%?
Response: f
